Origin of values: ChEMBL document CHEMBL1649165

Tested on: Candida parapsilosis
Experiment: Antimicrobial activity against Candida parapsilosis by broth microdilution method
Type: functional
Conditions: Lodderomyces parapsilosis
*1 amine or outer side, *2 acyl side, *3 side chain or, on linkers, in order; H or OH if unused. Where a SMILES comes first, the peptide text is derived from it. Bridges are numbered along the chain shown (N, C = ends). [ ]: non-standard residue; d: D form. The star is where a group is joined. hTyr(3S-OH,4S-OH,3'-OSO3H) = N[C@H](C(=O)O)[C@H](O)[C@@H](O)c1ccc(O)c(OS(=O)(=O)O)c1; pTerphenylCO(4''-OnC5H11) = CCCCCOc1ccc(-c2ccc(-c3ccc(C(=O)*)cc3)cc2)cc1; Orn(4R-OH,5R-OH) = O=C([C@H](C[C@@H](O)[C@@H](O)N[*:3])N[*:1])[*:2]; hTyr(3S-OH,4S-OH) = N[C@H](C(=O)O)[C@H](O)[C@@H](O)c1ccc(O)cc1; Pro(3S-OH,4S-Me) = C[C@H]1CN[C@H](C(=O)O)[C@H]1O; X1 = CCCCCOc1ccc(-c2cc(-c3ccc(C(=O)*)cc3)no2)cc1; Gln(3R-OH) = NC(=O)C[C@@H](O)[C@H](N)C(=O)O; Hyp = O=C(O)[C@@H]1C[C@@H](O)CN1
READOUT NAME: MIC90 (µg/mL)
Answer with a number only, understood to be in µg/mL.

Consider the reported MIC90 for these molecules:
CCC(C)n1ncn(-c2ccc(N3CCN(c4ccc(OCC5COC(Cn6cncn6)(c6ccc(Cl)cc6Cl)O5)cc4)CC3)cc2)c1=O (centres undefined) : 0.03
Nc1nc(=O)[nH]cc1F : 0.25
OC(Cn1cncn1)(Cn1cncn1)c1ccc(F)cc1F : 1
CC[C@H](C)C[C@H](C)CCCCCCCCC(=O)N[C@H]1C[C@@H](O)[C@@H](NCCN)NC(=O)[C@@H]2[C@@H](O)CCN2C(=O)[C@H]([C@H](O)CCN)NC(=O)[C@H]([C@H](O)[C@@H](O)c2ccc(O)cc2)NC(=O)[C@@H]2C[C@@H](O)CN2C(=O)[C@H]([C@@H](C)O)NC1=O : 1
CC[C@@H]([C@H](C)O)n1ncn(-c2ccc(N3CCN(c4ccc(OC[C@@H]5CO[C@@](Cn6cncn6)(c6ccc(F)cc6F)C5)cc4)CC3)cc2)c1=O : 0.03

Ask | What does the record list as MIC90 for "C[C@@H]1[C@H](O)[C@@H](C)/C=C/C=C/C=C/C=C/C=C/C=C/C=C/[C@H](O[C@@H]2O[C@H](C)[C@@H](O)[C@H](N)[C@@H]2O)C[C@@H]2O[C@](O)(C[C@@H](O)C[C@@H](O)[C@H](O)CC[C@@H](O)C[C@@H](O)CC(=O)O[C@H]1C)C[C@H](O)[C@H]2C(=O)O" ?
Reply | 0.25

Ask | What does the record list as MIC90 for CCCCCOc1ccc(-c2ccc(-c3ccc(C(=O)N[C@H]4C[C@@H](O)[C@@H](O)NC(=O)[C@@H]5[C@@H](O)[C@@H](C)CN5C(=O)[C@H]([C@@H](C)O)NC(=O)[C@H]([C@H](O)[C@@H](O)c5ccc(O)cc5)NC(=O)[C@@H]5C[C@@H](O)CN5C(=O)[C@H]([C@@H](C)O)NC4=O)cc3)cc2)cc1 [ANIDULAFUNGIN] ({pTerphenylCO(4''-OnC5H11)}-[Orn(4R-OH,5R-OH)]T[Hyp][hTyr(3S-OH,4S-OH)]T[Pro(3S-OH,4S-Me)]; lactam 1-C) ?
Reply | 2

Ask | What does the record list as MIC90 for "C[C@@H](c1ncncc1F)[C@](O)(Cn1cncn1)c1ccc(F)cc1F" ?
Reply | 0.02

Ask | What does the record list as MIC90 for CCCCCOc1ccc(-c2cc(-c3ccc(C(=O)N[C@H]4C[C@@H](O)[C@@H](O)NC(=O)[C@@H]5[C@@H](O)[C@@H](C)CN5C(=O)[C@H]([C@H](O)CC(N)=O)NC(=O)[C@H]([C@H](O)[C@@H](O)c5ccc(O)c(OS(=O)(=O)O)c5)NC(=O)[C@@H]5C[C@@H](O)CN5C(=O)[C@H]([C@@H](C)O)NC4=O)cc3)no2)cc1 [MICAFUNGIN] (X1-[Orn(4R-OH,5R-OH)]T[Hyp][hTyr(3S-OH,4S-OH,3'-OSO3H)][Gln(3R-OH)][Pro(3S-OH,4S-Me)]; lactam 1-C) ?
Reply | 1
